tested on: cbb promoter; format: cell-based, Ralstonia eutropha; settings: Table 9, chemoautotrophic growth conditions
REPORTED_PROPERTY: Chemoautotrophic β-galactosidase activity

In the examples that follow, each entry is paired with its recorded Chemoautotrophic β-galactosidase activity.
>  <MOLECULE>
E87K/G242S (protein) MSSFLRALTLRQLQIFVTVARHASFVRAAEELHLTQPAVSMQVKQLESVVGMALFERVKGQLTLTEPGDRLLHHASRILGEVKDAEKGLQAVKDVEQGSITIGLISTSKYFAPKLLAGFTALHPGVDLRIAEGNRETLLRLLQDNAIDLALMGRPPRELDAVSEPIAAHPHVLVASPRHPLHDAKGFDLQELRHETFLLREPGSGTRTVAEYMFRDHLFTPAKVITLGSNETIKQAVMAGMSISLLSLHTLGLELRTGEIGLLDVAGTPIERIWHVAHMSSKRLSPASESCRAYLLEHTAEFLGREYGGLMPGRRVA

>  <MEASUREMENT>
4312 nmol/min/mg of protein

$$$$
>  <MOLECULE>
P269S/T299I (protein) MSSFLRALTLRQLQIFVTVARHASFVRAAEELHLTQPAVSMQVKQLESVVGMALFERVKGQLTLTEPGDRLLHHASRILGEVKDAEEGLQAVKDVEQGSITIGLISTSKYFAPKLLAGFTALHPGVDLRIAEGNRETLLRLLQDNAIDLALMGRPPRELDAVSEPIAAHPHVLVASPRHPLHDAKGFDLQELRHETFLLREPGSGTRTVAEYMFRDHLFTPAKVITLGSNETIKQAVMAGMGISLLSLHTLGLELRTGEIGLLDVAGTSIERIWHVAHMSSKRLSPASESCRAYLLEHIAEFLGREYGGLMPGRRVA

>  <MEASUREMENT>
3697 nmol/min/mg of protein

$$$$

Endpoint output: Chemoautotrophic β-galactosidase activity of A117V (protein) MSSFLRALTLRQLQIFVTVARHASFVRAAEELHLTQPAVSMQVKQLESVVGMALFERVKGQLTLTEPGDRLLHHASRILGEVKDAEEGLQAVKDVEQGSITIGLISTSKYFAPKLLVGFTALHPGVDLRIAEGNRETLLRLLQDNAIDLALMGRPPRELDAVSEPIAAHPHVLVASPRHPLHDAKGFDLQELRHETFLLREPGSGTRTVAEYMFRDHLFTPAKVITLGSNETIKQAVMAGMGISLLSLHTLGLELRTGEIGLLDVAGTPIERIWHVAHMSSKRLSPASESCRAYLLEHTAEFLGREYGGLMPGRRVA . Value?
6793 nmol/min/mg of protein
